HPLC purity 1 week Relative to the initial purity listing for selected compounds.
- assayInfo: Solid-state stability test, one week, HPLC purity
- Format: physicochemical
- assaySetup: 40° C./75% RH, 1 week
// units = %; emit number, no label

Sample records with HPLC purity 1 week Relative to the initial purity:
CC1=Nc2c(F)cc(-c3nc(Nc4ccc(C5CCN(C)CC5)cn4)ncc3F)cc2C12CCCC2.O=C(O)CCC(=O)O [Succinate crystal form A]; 100.00
CC1=Nc2c(F)cc(-c3nc(Nc4ccc(C5CCN(C)CC5)cn4)ncc3F)cc2C12CCCC2.O=C(O)/C=C/C(=O)O [Fumarate crystal form A]; 100.0

## Task Retrieve HPLC purity 1 week Relative to the initial purity measured for CC1=Nc2c(F)cc(-c3nc(Nc4ccc(C5CCN(C)CC5)cn4)ncc3F)cc2C12CCCC2.O=C(O)/C=C\C(=O)O [Maleate crystal form B] and print it.
## Result 100.0

## Task Fill in HPLC purity 1 week Relative to the initial purity for record CC1=Nc2c(F)cc(-c3nc(Nc4ccc(C5CCN(C)CC5)cn4)ncc3F)cc2C12CCCC2 [Adipate crystal form A]
## Result 100.0

## Task Answer with the recorded HPLC purity 1 week Relative to the initial purity for the compound listed here: CC1=Nc2c(F)cc(-c3nc(Nc4ccc(C5CCN(C)CC5)cn4)ncc3F)cc2C12CCCC2 [Free base crystal form A, reference compound]
## Result 99.9

## Task Kindly indicate its recorded HPLC purity 1 week Relative to the initial purity. Item: CC1=Nc2c(F)cc(-c3nc(Nc4ccc(C5CCN(C)CC5)cn4)ncc3F)cc2C12CCCC2.CS(=O)(=O)O [Methanesulfonate crystal form A, reference compound]
## Result 99.4

## Task Check the records and state HPLC purity 1 week Relative to the initial purity for CC1=Nc2c(F)cc(-c3nc(Nc4ccc(C5CCN(C)CC5)cn4)ncc3F)cc2C12CCCC2.O=C(O)/C=C/C(=O)O [Fumarate crystal form C]
## Result 100.0
